// values below are reported pIC50
System: Leishmania donovani
Assay: Inhibitory activity against Leishmania donovani (macrophage)
Type: functional, organism-based
pIC50: −log10 of the molar value.
measurementType: pIC50

{"compound": "COc1cc(NC(=N)c2ccccn2)ccc1-c1ccc(-c2ccc(NC(=N)c3ccccn3)cc2OC)o1", "relationSymbol": "=", "assayResult": 6.32}
{"compound": "CCCCCCCCCCCCCCCCOP(=O)([O-])OCC[N+](C)(C)C", "relationSymbol": "=", "assayResult": 6.00}
{"compound": "CC(C)Oc1cc(NC(=N)N)ccc1-c1ccc(-c2ccc(NC(=N)N)cc2OC(C)C)o1", "relationSymbol": "<", "assayResult": 5.22}
{"compound": "Cc1c(N=C(N)N)ccc(-c2ccc(-c3ccc(N=C(N)N)c(C)c3C)o2)c1C", "relationSymbol": "<", "assayResult": 4.72}
{"compound": "N=C(Nc1ccc(-c2ccc(-c3ccc(NC(=N)c4ccccn4)cc3Cl)o2)c(Cl)c1)c1ccccn1", "relationSymbol": "=", "assayResult": 6.89}
{"compound": "N=C(N)Nc1ccc(-c2ccc(-c3ccc(N=C(N)N)c(Cl)c3)o2)cc1Cl", "relationSymbol": "<", "assayResult": 5.20}
{"compound": "Cc1cc(NC(=N)N)ccc1-c1ccc(-c2ccc(NC(=N)N)cc2C)o1", "relationSymbol": "<", "assayResult": 5.22}
{"compound": "CSc1cc(-c2ccc(-c3ccc(/N=C(\\N)c4ccccn4)c(SC)c3)o2)ccc1/N=C(\\N)c1ccccn1", "relationSymbol": "=", "assayResult": 6.82}
{"compound": "COc1cc(-c2ccc(-c3ccc(/N=C(\\N)c4ccccn4)c(OC)c3)o2)ccc1/N=C(\\N)c1ccccn1", "relationSymbol": "=", "assayResult": 6.80}
{"compound": "Cc1cc(NC(=N)c2ccccn2)ccc1-c1ccc(-c2ccc(NC(=N)c3ccccn3)cc2C)o1", "relationSymbol": "=", "assayResult": 6.22}
{"compound": "COc1cc(NC(=N)N)ccc1-c1ccc(-c2ccc(NC(=N)N)cc2OC)o1", "relationSymbol": "=", "assayResult": 5.28}
{"compound": "N=C(N)Nc1ccc(-c2ccc(-c3ccc(NC(=N)N)cc3Cl)o2)c(Cl)c1", "relationSymbol": "<", "assayResult": 5.17}

---

What follows is a collection of ΔTm values obtained with Nucleic Acid.

{"compound": "Cc1cc(NC(=N)c2ccccn2)ccc1-c1ccc(-c2ccc(NC(=N)c3ccccn3)cc2C)o1", "measurementTarget": "Nucleic Acid", "ΔTm": 22.6}
{"compound": "N=C(N)Nc1ccc(-c2ccc(-c3ccc(NC(=N)N)cc3C(F)(F)F)o2)c(C(F)(F)F)c1", "measurementTarget": "Nucleic Acid", "ΔTm": 5.9}
{"compound": "COc1cc(NC(=N)N)ccc1-c1ccc(-c2ccc(NC(=N)N)cc2OC)o1", "measurementTarget": "Nucleic Acid", "ΔTm": 15.2}
{"compound": "CC(C)Oc1cc(NC(=N)N)ccc1-c1ccc(-c2ccc(NC(=N)N)cc2OC(C)C)o1", "measurementTarget": "Nucleic Acid", "ΔTm": 12}

---

// values below are reported IC50
Tested on: Leishmania donovani
Assay: Inhibitory activity against Leishmania donovani (macrophage)
Type: functional, organism-based
measurementType: IC50

{"compound": "CCOc1cc(-c2ccc(-c3ccc(N=C(N)N)c(OCC)c3)o2)ccc1N=C(N)N", "assayResult": "> 40 µM"}
{"compound": "N=C(N)Nc1ccc(-c2ccc(-c3ccc(NC(=N)N)cc3)o2)cc1", "assayResult": "> 24 µM"}
{"compound": "N=C(Nc1ccc(-c2ccc(-c3ccc(NC(=N)c4ccccc4)cc3)o2)cc1)c1ccccc1", "assayResult": "> 8 µM"}
{"compound": "Cc1c(/N=C(\\N)c2ccccn2)ccc(-c2ccc(-c3ccc(/N=C(\\N)c4ccccn4)c(C)c3C)o2)c1C", "assayResult": "3.6 µM"}
{"compound": "N=C(Nc1ccc(-c2ccc(-c3ccc(NC(=N)c4ccccn4)cc3)o2)cc1)c1ccccn1", "assayResult": "1.45 µM"}
{"compound": "COc1cc(-c2ccc(-c3ccc(N=C(N)N)c(OC)c3)o2)ccc1N=C(N)N", "assayResult": "> 29 µM"}
{"compound": "N=C(N)Nc1ccc(-c2ccc(-c3ccc(NC(=N)N)cc3C(F)(F)F)o2)c(C(F)(F)F)c1", "assayResult": "> 5.6 µM"}
{"compound": "CSc1cc(-c2ccc(-c3ccc(N=C(N)N)c(SC)c3)o2)ccc1N=C(N)N", "assayResult": "> 19 µM"}
{"compound": "N=C(N)c1ccc(OCCCCCOc2ccc(C(=N)N)cc2)cc1", "assayResult": "9.3 µM"}
